Experiment: Bioavailability in Sprague-Dawley rat
Type: ADME, organism-based
Conditions: in vivo
MEASURED PARAMETER: bioavailability (%)
Answers are plain numbers, in %.

Can you look up the measured bioavailability of `O=C(NCC12CC3CC(CC(C3)C1)C2)c1cc(CN2CCNCC2)ccc1Cl` for me?
79

###

Biological target: P2X purinoceptor 7 (Homo sapiens)
Sequence (Q99572 whole entry): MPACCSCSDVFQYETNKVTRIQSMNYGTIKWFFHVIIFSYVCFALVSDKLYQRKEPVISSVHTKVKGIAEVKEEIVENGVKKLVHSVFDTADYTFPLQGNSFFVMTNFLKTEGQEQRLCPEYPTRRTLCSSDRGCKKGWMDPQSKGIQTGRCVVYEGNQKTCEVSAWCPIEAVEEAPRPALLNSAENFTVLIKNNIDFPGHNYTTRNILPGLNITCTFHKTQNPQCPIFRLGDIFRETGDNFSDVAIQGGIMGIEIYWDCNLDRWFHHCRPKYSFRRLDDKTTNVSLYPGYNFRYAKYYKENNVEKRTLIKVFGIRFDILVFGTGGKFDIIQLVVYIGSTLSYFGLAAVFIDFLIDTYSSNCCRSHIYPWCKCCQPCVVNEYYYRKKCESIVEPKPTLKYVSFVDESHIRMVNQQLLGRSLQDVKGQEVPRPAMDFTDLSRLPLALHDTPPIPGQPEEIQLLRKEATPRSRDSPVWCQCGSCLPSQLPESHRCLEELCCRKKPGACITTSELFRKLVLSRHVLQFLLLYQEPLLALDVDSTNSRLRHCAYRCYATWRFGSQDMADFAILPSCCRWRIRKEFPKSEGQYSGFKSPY
Test: Antagonist activity at human P2X7 receptor transfected in THP1 cells assessed as inhibition of benzoyl-ATP-induced changes in plasma membrane pore formation
Format: functional, cell-based, THP-1
Conditions: read-out: pA2 (converted)
Kindly state Kb for each of the entries shown.
Give bare numbers, in nM.

Reference set, count: 5
[[record]]
chemical_structure = "O=C(NCC12CC3CC(CC(C3)C1)C2)c1cc(O[C@@H]2CCCNC2)ccc1Cl"
quantitative_readout = 6.31

[[record]]
chemical_structure = "O=C(NCC12CC3CC(CC(C3)C1)C2)c1cc(O[C@H]2CCCNC2)ccc1Cl"
quantitative_readout = 10

[[record]]
chemical_structure = "O=C(NCC12CC3CC(CC(C3)C1)C2)c1cc(NC2CCNCC2)ccc1Cl"
quantitative_readout = 25.1

[[record]]
chemical_structure = "Cc1sc(CN2CCNCC2)cc1C(=O)NCC12CC3CC(CC(C3)C1)C2"
quantitative_readout = 316

[[record]]
chemical_structure = "O=C(NCC12CC3CC(CC(C3)C1)C2)c1cc(C2CCNCC2)ccc1Cl"
quantitative_readout = 15.8


Missing value: Kb, P2X purinoceptor 7 (Homo sapiens), entry `O=C(NCC12CC3CC(CC(C3)C1)C2)c1cccc(CN2CCCCC2)c1Cl` . Fill in?
200
